- EXPERIMENT NOTES: MRP1 drug-resistance reversers in H69AR cells – cell-based, doxorubicin co-treatment, pilot screen (AID 601)
- EXPERIMENTAL SETUP: H69AR cells + 2 uM doxorubicin, CellTiter-Glo, 72 h; at 10 µM; stronger effect = higher value
MEASURED ENDPOINT: differential viability (reversal) (%)
Give the value, in units of %, as a plain number.

[Q] Which differential viability (reversal) value belongs to Cc1cc(C)cc(N(CC(=O)NC2CCC(C)CC2)S(=O)(=O)c2c(C)noc2C)c1 (stereo unspecified) ?
[A] 4.2

[Q] Which differential viability (reversal) value belongs to COc1ccccc1S(=O)(=O)Cc1ccc(C(=O)N2CCN(c3ccccn3)CC2)o1 ?
[A] 6.81

[Q] Which differential viability (reversal) value belongs to Cc1[nH]nc2c1C(=O)CC(C)(C)C2 ?
[A] 5.23

More entries:
[Q] Which differential viability (reversal) value belongs to Cc1ccc(N=Cc2ccc[nH]2)c(O)c1 ?
[A] -14.5

[Q] Which differential viability (reversal) value belongs to CC(OC(=O)C1CC=CCC1C(N)=O)C(Cl)=C(Cl)Cl (stereo unspecified) ?
[A] 7.14

[Q] Which differential viability (reversal) value belongs to CCOc1ccccc1NC(=O)CSc1nnc(Cc2cccn2C)n1-c1ccc(F)cc1 ?
[A] 1.24

[Q] Which differential viability (reversal) value belongs to Cc1ccnc2c(N3C(=O)C4C5C=CC(C5)C4(C)C3=O)cccc12 (stereo unspecified) ?
[A] 1.47

[Q] Which differential viability (reversal) value belongs to O=C(NCCSc1c[nH]c2ccccc12)c1ccc(Br)o1 ?
[A] -21.1

[Q] Which differential viability (reversal) value belongs to CC1Cc2nc(SCC(=O)Nc3nccs3)n(C)c(=O)c2S1 (stereo unspecified) ?
[A] -0.05

[Q] Which differential viability (reversal) value belongs to COc1ccc(-c2nc(C)c(C(C)=O)n2O)cc1OC ?
[A] 9.6

[Q] Which differential viability (reversal) value belongs to CCc1c(C)c2c(C)nn(-c3ccccc3)c2[nH]c1=O ?
[A] 5.91

----------
- EXPERIMENT NOTES: HUVEC growth inhibition – cell-based, human, primary screen (AID 575);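 also: 100% = median of untreated cell wells with 0.1% DMSO on each plate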
- EXPERIMENTAL SETUP: HUVEC proliferation, CellTiter-Glo luminescence, 72 h; at 10 µM; stronger effect = lower value
Below: a set of entries, each annotated with reported viability.
Give the value, in units of %, as a plain number.

Sample answers from the record:
[Q] Which viability value belongs to CCCSc1nnc2nc3c(nn12)c1ccccc1n3C ?
[A] 98.9

[Q] Which viability value belongs to CCn1cc(SCC(=O)Nc2cc(C)on2)c2ccccc21 ?
[A] 89.4

[Q] Which viability value belongs to O=C(Nc1ccc(CN2CCOCC2)cc1)c1cc2ccccn2n1 ?
[A] 94.4

[Q] Which viability value belongs to COc1cc2[nH]c(=O)n(CCCCCC(=O)N3CCN(c4ccccn4)CC3)c(=O)c2cc1OC ?
[A] 100

[Q] Which viability value belongs to CCOC(=O)N1CCC(Nc2nc3ccccc3n3cnnc23)CC1 ?
[A] 85.8

[Q] Which viability value belongs to COc1cc2c(cc1OC)CN(C(=O)CSc1nnc3scc(-c4ccccc4)n13)CC2 ?
[A] 86.7

[Q] Which viability value belongs to COc1ccc(CCNc2oc(COc3ccccc3Cl)nc2C#N)cc1OC ?
[A] 56.8

[Q] Which viability value belongs to CC(=O)Nc1cccc(NC(=O)CSc2nn3c(=O)c(C)nnc3s2)c1 ?
[A] 76.8

[Q] Which viability value belongs to O=C(OCN1C(=O)c2ccccc2C1=O)C1CCCCC1 ?
[A] 87.3

[Q] Which viability value belongs to Cc1ccc(S(=O)(=O)N2CCOCC2)cc1C(=O)Nc1nc(-c2cccnc2)cs1 ?
[A] 88.8

More entries:
[Q] Which viability value belongs to CC1CCN(c2oc(-c3ccccc3F)nc2C#N)CC1 ?
[A] 78.7

[Q] Which viability value belongs to CCOC(=O)c1c(C)n(C)c2c(C)cc(O)c(OC(C)=O)c12 ?
[A] 103

[Q] Which viability value belongs to CN1CCN(CCCNC(=O)Cn2ncc3c4ccccc4n(C)c3c2=O)CC1 ?
[A] 82.7
